The values you see were collected from ChEMBL document CHEMBL1155109.

- test: Displacement of [3H]colchicine from microtubule associated protein rich tubulin at 1 uM
readout: inhibition (%)

Example entries begin here.
COc1cc(C(=O)n2ccc3c(N)c(OC)ccc32)cc(OC)c1OC: 71
COc1cc(C(=O)n2c(C)cc3cc(N(C)C)ccc32)cc(OC)c1OC: 72
COc1ccc(/C=C\c2cc(OC)c(OC)c(OC)c2)cc1O: 85

[A] COc1cc(C(=O)n2c(C)cc3c(O)c(OC)ccc32)cc(OC)c1OC
[B] COc1ccc2c(c1)CCN2C(=O)c1cc(OC)c(OC)c(OC)c1
Query :: // select label with min value of measured inhibition from [ A , B ] // respond with label for picked entry
Result :: B

---

- System: MKN-45
- test: Growth inhibition of human MKN45 cells after 72 hrs by methylene blue dye assay
- Assay type: functional, cell-based
- condition_notes: MKN-45, 72 h
pIC50: −log10 of the molar value.
readout: pIC50

Use the examples below as a reference point.
COC(=O)c1ccc2c(ccn2C(=O)c2cc(OC)c(OC)c(OC)c2)c1: < 5.30
COc1ccc2c(c1)CCN2C(=O)c1cc(OC)c(OC)c(OC)c1: 7.28
COc1ccc(NC(=O)c2cc(OC)c(OC)c(OC)c2)cc1: < 5.30
COc1ccc2c(c1)cc(C(C#N)N(C)C)n2C(=O)c1cc(OC)c(OC)c(OC)c1 (stereo unspecified): < 5.30

Query :: GET /values?readout=pIC50&item= "COc1ccc2c(c1)cc(CO)n2C(=O)c1cc(OC)c(OC)c(OC)c1"
Result :: < 5.30

Query :: Any idea what its pIC50 is? The compound is "COc1cc(C(=O)n2c(C)cc3cc(N(C)C)ccc32)cc(OC)c1OC"
Result :: 7.39

---

- test: Inhibition of microtubule associated protein rich tubulin polymerization
readout: IC50 (nM)

Worked cases, IC50 given:
COc1cc2c(c(OC)c1OC)-c1ccc(OC)c(=O)cc1[C@@H](NC(C)=O)CC2: 3000
COc1ccc2c(c1)CCN2C(=O)c1cc(OC)c(OC)c(OC)c1: 2600
COc1cc(C(=O)n2c(C)cc3c(O)c(OC)ccc32)cc(OC)c1OC: 600

[a] COc1cc(C(=O)n2c(C)cc3cc(N(C)C)ccc32)cc(OC)c1OC
[b] COc1cc(C(=O)n2ccc3c(N)c(OC)ccc32)cc(OC)c1OC
Query :: Which value of IC50 is smaller, the one for a or the one for b ? Label of pick, please.
Result :: b
(b: 900 nM, a: 1500 nM)

---

- test: Growth inhibition of P-gp 170/MDR overexpressing human KB-vin10 cells after 72 hrs by methylene blue dye assay
- Format: functional
- condition_notes: KB-VIN10, 72 h
Measured pIC50 by item
// scale note: pIC50 = -log10(conc_M); give the bare number

// solved cases for pIC50 follow
COc1cc2c(c(OC)c1OC)-c1ccc(OC)c(=O)cc1[C@@H](NC(C)=O)CC2: 6.90
CCOC(=O)c1cc2cc(OC)ccc2n1C(=O)c1cc(OC)c(OC)c(OC)c1: 6.73
COc1cc(C(=O)n2ccc3c(N)c(OC)ccc32)cc(OC)c1OC: 8.62

Query :: Which pIC50 is reported for this compound? "COc1cc(C(=O)n2c(C)cc3cc(N(C)C)ccc32)cc(OC)c1OC"
Result :: 7.42

Query :: Given "COC(=O)c1ccc2c(ccn2C(=O)c2cc(OC)c(OC)c(OC)c2)c1" , state its recorded pIC50.
Result :: 5.30

Query :: Could you share which pIC50 value was measured for "COc1cc(C(=O)n2ccc3cc4c(cc32)OCO4)cc(OC)c1OC" ?
Result :: 6.23

Query :: What does the data say about its pIC50? Entry: "COc1cc(C(=O)n2ccc3cc(C)ccc32)cc(OC)c1OC"
Result :: 6.40

Query :: Value lookup for pIC50; key = "COc1ccc2c(c1)CCN2C(=O)c1cc(OC)c(OC)c(OC)c1"
Result :: 7.08

Query :: Request the reported pIC50 associated with "COc1ccc2c(c1)CCCN2C(=O)c1cc(OC)c(OC)c(OC)c1"
Result :: 6.23

Query :: What value of pIC50 has been reported for the following compound? COc1ccc2c(c1)CC(C)N2C(=O)c1cc(OC)c(OC)c(OC)c1 (stereo not given)
Result :: 6.43

---

Recorded measurements of pIC50, one per entry
- test: Growth inhibition of P-gp 170/MDR overexpressing human KB-vin10 cells after 72 hrs by methylene blue dye assay
- Assay type: functional
- condition_notes: KB-VIN10, 72 h
pIC50: −log10 of the molar value.

COc1cc(C(=O)n2ccc3cc(CO)ccc32)cc(OC)c1OC: < 5.30

Turning to the following compound.
Query :: // query pIC50 value for entry "COc1cc(C(=O)n2ccc3cc(C=O)ccc32)cc(OC)c1OC"
Result :: < 5.30

---

- test: Growth inhibition of P-gp 170/MDR overexpressing human KB-vin10 cells after 72 hrs by methylene blue dye assay
- Type: functional
- condition_notes: KB-VIN10, 72 h
Quick list: IC50 per entry.

COc1ccc2c(c1)cc(CO)n2C(=O)c1cc(OC)c(OC)c(OC)c1: > 5 µM
COc1cc(C(=O)n2ccc3cc(CN(C)C)ccc32)cc(OC)c1OC: > 5 µM

Next:
Query :: Can you look up the measured IC50 of "COc1ccc(NC(=O)c2cc(OC)c(OC)c(OC)c2)cc1" for me?
Result :: > 5 µM
